# measured.on: WNV NS2B-NS3 proteinase (West Nile virus, UniProt Q9Q6P4)
# Sequence (Q9Q6P4 1506-1683): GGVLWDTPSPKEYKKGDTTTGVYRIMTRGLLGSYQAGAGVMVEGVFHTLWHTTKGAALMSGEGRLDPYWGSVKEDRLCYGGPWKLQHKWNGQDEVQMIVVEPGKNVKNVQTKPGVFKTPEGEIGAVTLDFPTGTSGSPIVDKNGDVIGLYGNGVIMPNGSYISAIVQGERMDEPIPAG
# Sequence (Q9Q6P4 1375-1505): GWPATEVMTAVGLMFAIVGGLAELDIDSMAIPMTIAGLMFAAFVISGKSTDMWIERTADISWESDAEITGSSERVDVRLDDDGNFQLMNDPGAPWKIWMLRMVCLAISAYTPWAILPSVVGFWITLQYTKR
# assay.summary: WNV NS2B-NS3 proteinase activity assay with Pyr-RTKR-AMC fluorogenic substrate
# Type: biochemical
pIC50: −log10 of the molar value.
The following compounds are listed with their measured pIC50 values.

For orientation, consider the following solved cases.
compound: COc1ccc(S(=O)(=O)n2nc(OC(=O)c3ccccc3)cc2N)cc1
measured.on: WNV NS2B-NS3 proteinase (West Nile virus, UniProt Q9Q6P4)
pIC50: 6.98
//
compound: COc1ccc(Cn2nc(C)cc2CC(O)c2ccccc2)cc1 (stereo not shown) [Compound 12a]
measured.on: WNV NS2B-NS3 proteinase (West Nile virus, UniProt Q9Q6P4)
pIC50: < 4.00
//
compound: COc1ccc(S(=O)(=O)n2nc(OC(=O)c3c(Cl)cccc3Cl)cc2N)cc1
measured.on: WNV NS2B-NS3 proteinase (West Nile virus, UniProt Q9Q6P4)
pIC50: < 4.00

Input: Input COc1ccc(S(=O)(=O)n2nc(OC(=O)c3cccs3)cc2N)cc1 , output reported pIC50.
Output: 6.96

Input: Find the measured pIC50 of COc1ccc(Cn2nc(C)cc2CC(O)c2c(F)cccc2F)cc1 (stereo not shown) [Compound 12b] and report it.
Output: < 4.00

Input: Using known records, supply pIC50 for COc1ccc(Cn2nc(C)cc2CC(=O)c2ccccc2)cc1 [Compound 13a]
Output: < 4.00

Input: Specify reported pIC50 for the compound shown: COc1ccc(S(=O)(=O)n2nc(OC(=O)c3ccccc3[N+](=O)[O-])cc2N)cc1
Output: < 4.00
